Here, each record is paired with measured cytotoxicity at 10 µM data.
TEST PROTOCOL: Toxicity liver stage against HepG2, at 10uM
Format: cell-based
Design: test concentration 10 uM, cell line HepG2-A16-CD81EGFP
ASSAY SETUP: human, HepG2-A16-CD81EGFP cells; read-out: INHIBITION

| COMPOUND | cytotoxicity at 10 µM (%) |
| --- | --- |
| CCOc1ccc2nc(CN3CCC(CNC(C)=O)C3)ccc2c1 (centres undefined) | -7.23 |
| CC1(C)COCCN1C(=O)Cc1cc(Cl)c2c(c1)OCCO2 | 1.54 |
| CCc1nc(N)nc(NCCC(=O)NC2CCCCC2)c1C | -38.9 |
| O=C(NCC1CCOC1)c1cc(-c2ccccc2Cl)[nH]n1 (centres undefined) | -3.11 |
| CC(c1cn2ncsc2n1)n1cc2[nH]cccc-2c1=O (centres undefined) | -3.74 |
| Cc1cc(C2CCCN(C(=O)CN3CCN(C)CC3)C2)n[nH]1 (centres undefined) | -4.18 |
| CCN1CCN(C(=O)c2cc(-c3cccn3C)n[nH]2)[C@H]2CS(=O)(=O)C[C@H]21 | -12.5 |
| CN1CCN(C2COC3(CCN(c4ccc(C#N)cc4)CC3)C2)CC1 (centres undefined) | 8.95 |
| CN(C(=O)Cc1ccc2c(c1)OCCO2)C1CCCCC1 | 2.89 |
| CCN(Cc1ccncc1)S(C)(=O)=O | 14.4 |
| Cc1ccc(C2COCCN2C(=O)c2ccc(CN(C)C)cc2)o1 (centres undefined) | 0.692 |
| COc1ccccc1C(C)NC(=O)N1CCC(n2cncn2)CC1 (centres undefined) | 2.85 |
| CCCC1CCCN(C(=O)CCn2cccn2)CC1 (centres undefined) | -9.48 |
| CC(c1cccc(S(N)(=O)=O)c1)N(C)CCOC(C)(C)C (centres undefined) | -32.8 |
| CC(Cn1cncn1)NCCN1CCc2ccccc21 (centres undefined) | -3.21 |
| CN(C)S(=O)(=O)N1CCC(Cn2cccn2)CC1 | -10.9 |
| CNC(=O)c1cccc(NCC(=O)Nc2cc(C)nn2C)c1C | -1.49 |
| Fc1cc(CN2CCOC3(CCOCC3)C2)ccc1OC(F)F | -11.9 |
| Cc1cc(C(=O)N[C@H](C)c2onc(C)c2C(=O)O)c(C)o1 | 3.82 |
| CCCN1CC(NC(=O)Nc2nc(C)n(C(C)C)n2)CC1=O (centres undefined) | -3.04 |
| CCC(NC(=O)c1ccco1)c1ccccc1OCC(=O)N1CCCC1 (centres undefined) | 4.9 |
| Cn1ccc(C(=O)N(CC(F)(F)F)c2cccc(Cl)c2)cc1=O | -0.0519 |
| CC(NC(=O)NCCCc1n[nH]c(N)c1C#N)c1ccccc1F (centres undefined) | -3.6 |
| O=C(COc1coc(CN2CCOCC2)cc1=O)Nc1ccccc1F | -10.7 |

====

TEST PROTOCOL: Toxicity liver stage against HepG2, at 10uM
Format: cell-based
Set-up: test concentration 10 uM, cell line HepG2-A16-CD81EGFP
ASSAY SETUP: human, HepG2-A16-CD81EGFP cells; read-out: INHIBITION
Form field: cytotoxicity at 10 µM (one value per entry).

| COMPOUND | cytotoxicity at 10 µM, % |
| --- | --- |
| Cc1nn(CC(O)CN2CCC(C)CC2)c(=O)c(C#N)c1C (centres undefined) | 5.84 |
| c1cnn(C[C@@H]2C[C@@H]3CN(CC4CC4)CC[C@@H]3N2c2nccs2)c1 | 9.1 |
| CO[C@@H]1CCN(Cc2c(C)noc2C)[C@@H]2CN(Cc3cccnc3)C[C@@H]21 | 11.9 |
| O=C(c1ccc(S(=O)(=O)N2CCSCC2)cc1)N1CCCCCC1 | 13.9 |
| Cc1nc(S(=O)(=O)N2CCc3[nH]nc(CCC(C)C)c3C2)cn1C | 10.2 |
| Cc1ccc(-c2nnc(CN3CC(n4cc(C)cn4)C3)o2)cc1 | 2.48 |
| Cc1cnn(CC2CN(Cc3nc4ccccc4c(=O)[nH]3)CCO2)c1 (centres undefined) | -7.62 |
| Cc1ccc(CN2CCCn3c(nc(Cn4ccnc4)cc3=O)C2)o1 | 5.89 |
| CC(C)(C)OC(=O)NC(C)(C)c1noc(CN2CCCCC2)n1 | 7.57 |
| Cc1occc(=O)c1OCC(=O)N1CCc2ccccc2C1 | -0.765 |
| Cc1cc(NC(=O)CCN2CCn3c(nnc3C3CC3)C2)no1 | 7.11 |
| CCNC(=O)CS(=O)(=O)NC1CCC(C)CC1 (centres undefined) | -4.57 |
| Cc1cc(C)n(C2CCN(c3ncnc4sc5c(c34)CCNC5)C2)n1 (centres undefined) | 17.3 |
| CCCc1cc(NCCn2cccn2)n2nccc2n1 | 0.988 |
| O=c1[nH]ccn1CCCN1CC=C(c2cnn(-c3ccccc3)c2)CC1 | 7.95 |
| CC(=O)NC1CCN(c2ccc(C#N)cc2C(F)(F)F)CC1 | 0.536 |
| Cc1cccnc1N1CCN(C(=O)CCc2cn3ccccc3n2)CC1 | -6.21 |
| Cc1cccc(CN2C(=O)CCC23CCN(Cc2cccn2C)CC3)n1 | 5.61 |
| CN(C)C(=O)n1c(C(=O)NC(C)(C)CO)cc2c1c1ccccc1n2C | -76.2 |
| CN1CCN(C(=O)Cc2ccc(F)cc2)Cc2cccnc21 | 0.0773 |
| NC(=O)C(c1ccc(F)cc1)N1CCN(CCO)CC1 (centres undefined) | -5.46 |
| Cc1nn(C)c(C)c1CCC(=O)NCc1cccnc1OC1CCCC1 | -4.38 |
| Cn1cc2c(n1)C(CNCC1CCOCC1)OCC2 (centres undefined) | 6.86 |
| O=S(=O)(CCCn1cncn1)Cc1ccccc1Cl | -5.91 |
